- Tested on: K562
- assayNotes: Antiproliferative activity against human K562 cells assessed as cell growth inhibition incubated for 72 hrs by MTT assay
- Type: functional, cell-based
- runParameters: K562, 72 h

- compoundStructure: "NS(=O)(=O)c1ccc(CCn2c(SCC(=O)Nc3ccc(Cl)cc3)nc3ccccc3c2=O)cc1"
  outputUnit: "nM"
  IC50: 2030

---

- subjectOfTest: Receptor tyrosine-protein kinase erbB-2 (Homo sapiens, UniProt P04626)
- Sequence (P04626 whole entry): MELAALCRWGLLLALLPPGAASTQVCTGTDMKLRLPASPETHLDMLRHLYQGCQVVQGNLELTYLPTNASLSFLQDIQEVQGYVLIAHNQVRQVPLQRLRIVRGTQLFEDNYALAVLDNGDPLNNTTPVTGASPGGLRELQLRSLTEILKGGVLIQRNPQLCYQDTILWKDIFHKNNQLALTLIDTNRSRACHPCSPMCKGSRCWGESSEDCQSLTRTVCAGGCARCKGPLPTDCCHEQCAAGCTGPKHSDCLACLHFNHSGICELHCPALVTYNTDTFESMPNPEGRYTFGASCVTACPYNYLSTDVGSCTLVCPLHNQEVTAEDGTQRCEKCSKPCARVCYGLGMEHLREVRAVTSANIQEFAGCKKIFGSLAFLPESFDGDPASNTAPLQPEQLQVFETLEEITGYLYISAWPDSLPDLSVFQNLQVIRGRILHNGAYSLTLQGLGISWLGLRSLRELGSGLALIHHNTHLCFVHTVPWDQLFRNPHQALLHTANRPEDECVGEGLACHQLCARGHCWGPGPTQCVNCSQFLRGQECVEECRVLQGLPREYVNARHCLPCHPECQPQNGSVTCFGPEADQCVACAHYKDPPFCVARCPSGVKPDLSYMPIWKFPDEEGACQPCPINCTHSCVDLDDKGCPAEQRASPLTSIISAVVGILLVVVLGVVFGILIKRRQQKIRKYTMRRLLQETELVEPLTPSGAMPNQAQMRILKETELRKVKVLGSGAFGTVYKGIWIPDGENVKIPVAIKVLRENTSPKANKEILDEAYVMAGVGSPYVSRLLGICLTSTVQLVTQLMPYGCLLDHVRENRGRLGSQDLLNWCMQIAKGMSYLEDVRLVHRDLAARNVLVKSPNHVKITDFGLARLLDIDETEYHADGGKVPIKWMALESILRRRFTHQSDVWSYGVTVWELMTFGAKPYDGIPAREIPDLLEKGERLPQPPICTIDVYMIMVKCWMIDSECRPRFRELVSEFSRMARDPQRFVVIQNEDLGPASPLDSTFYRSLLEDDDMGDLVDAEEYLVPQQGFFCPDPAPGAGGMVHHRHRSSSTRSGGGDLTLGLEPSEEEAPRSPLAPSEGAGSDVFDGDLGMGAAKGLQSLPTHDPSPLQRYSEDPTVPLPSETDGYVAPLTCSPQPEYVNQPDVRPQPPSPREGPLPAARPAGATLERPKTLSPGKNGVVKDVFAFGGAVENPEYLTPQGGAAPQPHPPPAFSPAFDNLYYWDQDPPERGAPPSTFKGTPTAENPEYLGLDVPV
- assayNotes: Inhibition of HER2 (unknown origin) incubated for 1 hrs by ELISA assay
observedProperty: IC50

- compoundStructure: "CN1C(=O)c2ccc(NC(=O)CSc3nc4cc5ccccc5cc4c(=O)n3-c3ccc(S(N)(=O)=O)cc3)cc2C1=O"
  endpointValue: "1.32 µM"

All values here come from ChEMBL document CHEMBL5230100.
